tested on: Tyrosine-protein kinase ABL1 (Homo sapiens), P00519 [Q252H]; settings: at 0.1 µM
measured_attribute: inhibition (%)

query_smiles=CCn1c(-c2nonc2N)nc2c(N3CCCC3)nccc21 measured_attribute=inhibition units_text=% result_number=1.69
query_smiles=CCc1cccc(NC(=O)Nc2ccc(Oc3ccc4nc(NC(=O)OC)[nH]c4c3)cc2)c1 measured_attribute=inhibition units_text=% result_number=48.4
query_smiles=CS(=O)(=O)CCN(CC#N)Cc1ccc(-c2ccc3ncnc(Nc4ccc(OCc5cccc(F)c5)c(Cl)c4)c3c2)o1 measured_attribute=inhibition units_text=% result_number=0.95

###

molecular target: MAP/microtubule affinity-regulating kinase 4 (Homo sapiens) (UniProt Q96L34); details: at 0.1 µM;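 also: values are averaged percent inhibition of MARK4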
Sequence (Q96L34 whole entry): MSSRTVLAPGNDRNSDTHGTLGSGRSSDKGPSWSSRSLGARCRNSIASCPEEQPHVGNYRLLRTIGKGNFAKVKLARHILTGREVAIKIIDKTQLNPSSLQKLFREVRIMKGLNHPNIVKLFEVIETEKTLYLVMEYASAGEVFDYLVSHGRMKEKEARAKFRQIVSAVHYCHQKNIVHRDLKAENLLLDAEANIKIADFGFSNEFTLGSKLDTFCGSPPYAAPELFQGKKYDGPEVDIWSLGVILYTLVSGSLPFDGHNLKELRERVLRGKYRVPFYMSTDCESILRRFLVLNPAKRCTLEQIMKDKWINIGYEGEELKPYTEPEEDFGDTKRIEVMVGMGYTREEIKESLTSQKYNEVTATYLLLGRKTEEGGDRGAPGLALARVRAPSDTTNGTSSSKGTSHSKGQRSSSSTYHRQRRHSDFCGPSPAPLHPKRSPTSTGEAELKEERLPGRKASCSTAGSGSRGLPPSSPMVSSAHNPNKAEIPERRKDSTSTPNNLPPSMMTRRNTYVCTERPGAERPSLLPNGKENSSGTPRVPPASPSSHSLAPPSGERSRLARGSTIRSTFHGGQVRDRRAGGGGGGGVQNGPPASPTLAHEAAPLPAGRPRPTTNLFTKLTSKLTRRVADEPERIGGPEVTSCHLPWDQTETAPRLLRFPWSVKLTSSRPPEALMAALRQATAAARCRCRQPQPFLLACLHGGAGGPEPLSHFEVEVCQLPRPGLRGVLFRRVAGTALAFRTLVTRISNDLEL
measured_attribute: inhibition (%)

query_smiles=COc1cc2ncn(-c3cc(O[C@@H](C)c4ccccc4Cl)c(C(N)=O)s3)c2cc1OC measured_attribute=inhibition result_number=2.88
query_smiles=CCn1c(-c2nonc2N)nc2cncc(C(=O)N3CCNCC3)c21 measured_attribute=inhibition result_number=2.3
query_smiles=CCn1c(-c2nonc2N)nc2cncc(C(=O)N3CC[C@H](N)C3)c21 measured_attribute=inhibition result_number=2.19
query_smiles=Cc1nnc(-c2ccc(C)c(-c3ccc(C(=O)Nc4cccc(C#N)c4)cc3)c2)o1 measured_attribute=inhibition result_number=0.41

###

target: MAP kinase-activated protein kinase 2 (Homo sapiens); conditions: at 0.1 µM;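 also: figures are mean inhibition values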
measured_attribute: inhibition

query_smiles=CN(C)c1cc2c(Nc3ccc4nc(Cc5ccccc5)[nH]c4c3)ncnc2cn1 result=2.01%
query_smiles=COc1cc(C=NNc2ncnc3c2cnn3-c2ccccc2)ccc1O result=-1.87%
query_smiles=CCn1c(-c2nonc2N)nc2c(C#CC(C)(C)O)nc(OC[C@@H](N)c3ccccc3)cc21 result=-3.81%
query_smiles=NCc1ccc(-c2nc(-c3ccc(Cl)c(O)c3)c(-c3ccncc3)[nH]2)cc1 result=-0.41%
query_smiles=Cn1cc(C=C2C(=O)Nc3cccnc32)c2ccccc21 result=0.71%
query_smiles=O=C1NC(=O)C(c2cccc(Cl)c2)=C1Nc1ccc(O)c(Cl)c1 result=0.03%
query_smiles=CCn1c(-c2nonc2N)nc2cncc(C(=O)N3CC[C@H](N)C3)c21 result=1.77%
query_smiles=Fc1cccc(COc2ccc(Nc3ncnc4cc(-c5ccc[nH]5)sc34)cc2Cl)c1 result=-0.38%

###

Target: Serine/threonine-protein kinase Nek2 (Homo sapiens) (UniProt P51955);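 also: mean inhibition value from the GSK PKIS kinase screening panel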
Sequence (whole entry): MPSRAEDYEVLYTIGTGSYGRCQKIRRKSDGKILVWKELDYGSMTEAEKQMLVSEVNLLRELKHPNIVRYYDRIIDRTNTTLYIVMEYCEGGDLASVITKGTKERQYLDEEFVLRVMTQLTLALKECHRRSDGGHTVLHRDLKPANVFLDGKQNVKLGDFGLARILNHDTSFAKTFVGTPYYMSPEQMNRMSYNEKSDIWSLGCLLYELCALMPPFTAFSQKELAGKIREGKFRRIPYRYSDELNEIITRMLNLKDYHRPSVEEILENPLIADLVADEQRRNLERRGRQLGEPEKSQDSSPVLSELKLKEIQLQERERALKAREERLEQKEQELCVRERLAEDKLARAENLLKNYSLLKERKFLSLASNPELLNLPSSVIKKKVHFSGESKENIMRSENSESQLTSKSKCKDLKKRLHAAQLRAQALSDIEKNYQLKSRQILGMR
Conditions: at 0.1 µM
measured_attribute: inhibition (%)

compound="COc1ccc2cc(-c3c(-c4ccncc4)nc(-c4ccc([S+](C)[O-])cc4)n3C)ccc2c1 (stereo not drawn)" units_text=% result_number=3.66
compound=CS(=O)(=O)CCN(CC#N)Cc1ccc(-c2ccc3ncnc(Nc4ccc(OCc5cccc(F)c5)c(Cl)c4)c3c2)o1 units_text=% result_number=3.59
compound=Nc1ncnc2occ(-c3ccc(NC(=O)Nc4cccc(C(F)(F)F)c4)cc3)c12 units_text=% result_number=6.56
compound="CC1=C(C(=O)Nc2ccc3[nH]ncc3c2)C(c2ccc3ccccc3c2)CC(=O)N1 (stereo not drawn)" units_text=% result_number=2.88
compound=Nc1ncnc2occ(-c3ccc(NC(=O)Nc4cc(C(F)(F)F)cc(C(F)(F)F)c4)cc3)c12 units_text=% result_number=3.72
compound=O=C1Nc2ccc(C(=O)c3ccco3)cc2C1=Cc1cc(Cl)c(O)c(Cl)c1 units_text=% result_number=5.56
compound=CS(=O)(=O)CCNCc1nc(-c2ccc3ncnc(Nc4ccc(F)c(Cl)c4)c3c2)cs1 units_text=% result_number=2.32
compound=CCN1CCC(CC(=O)Nc2n[nH]c3nc(-c4cccs4)c(Br)cc23)CC1 units_text=% result_number=-1.87

###

biological target: Protein-tyrosine kinase 6 (Homo sapiens); conditions: at 0.1 µM
Description: GSK_PKIS: BRK mean inhibition at 0.1 uM [Nanosyn]
measured_attribute: inhibition (%)

compound=CCn1c(-c2nonc2N)nc2cnc(Oc3cccc(NC(=O)c4ccc(OCCN5CCOCC5)cc4)c3)cc21 assay_target="Protein-tyrosine kinase 6 (Homo sapiens)" units_text=% result_number=0.94
compound=CCn1c(-c2nonc2N)nc2cncc(C(=O)N3CCNCC3)c21 assay_target="Protein-tyrosine kinase 6 (Homo sapiens)" units_text=% result_number=4.01
compound=CCn1c(-c2nonc2N)nc2c(C#CC(C)(C)O)nc(CN3CCCC3)cc21 assay_target="Protein-tyrosine kinase 6 (Homo sapiens)" units_text=% result_number=-2.67
compound=CN(C)c1cc2c(Nc3ccc4nc(Cc5ccccc5)[nH]c4c3)ncnc2cn1 assay_target="Protein-tyrosine kinase 6 (Homo sapiens)" units_text=% result_number=4.68
compound="CC1=C(C(=O)Nc2ccc3[nH]ncc3c2)C(c2ccc3ccccc3c2)CC(=O)N1 (centres undefined)" assay_target="Protein-tyrosine kinase 6 (Homo sapiens)" units_text=% result_number=3.76
compound=Cn1cc(C=C2C(=O)Nc3cccnc32)c2ccccc21 assay_target="Protein-tyrosine kinase 6 (Homo sapiens)" units_text=% result_number=0.63
compound=Fc1cccc(COc2ccc(Nc3ncnc4sc(-c5cccs5)cc34)cc2Cl)c1 assay_target="Protein-tyrosine kinase 6 (Homo sapiens)" units_text=% result_number=-1.94
compound=Cc1ccc(NC(=O)c2ccnc(N3CCCC3)c2)cc1-c1ccc(C(=O)NCC2CC2)cc1 assay_target="Protein-tyrosine kinase 6 (Homo sapiens)" units_text=% result_number=4.19
compound=O=C1Nc2ccc(C(=O)c3ccco3)cc2C1=Cc1cc(Cl)c(O)c(Cl)c1 assay_target="Protein-tyrosine kinase 6 (Homo sapiens)" units_text=% result_number=4.83
compound=COc1cc2ncn(-c3cc(OCc4ccccc4C(F)(F)F)c(C(N)=O)s3)c2cc1OC assay_target="Protein-tyrosine kinase 6 (Homo sapiens)" units_text=% result_number=3.25
compound=O=C1NC(=O)C(c2cccc(Cl)c2)=C1Nc1ccc(O)c(Cl)c1 assay_target="Protein-tyrosine kinase 6 (Homo sapiens)" units_text=% result_number=-2.09
compound=CCn1c(-c2nonc2N)nc2c(N3CCCC3)nccc21 assay_target="Protein-tyrosine kinase 6 (Homo sapiens)" units_text=% result_number=-1.28
compound=CS(=O)(=O)CCNCc1nc(-c2ccc3ncnc(Nc4ccc(F)c(Cl)c4)c3c2)cs1 assay_target="Protein-tyrosine kinase 6 (Homo sapiens)" units_text=% result_number=1.05
compound=COc1ccc(-c2ccncc2)cc1C(N)=O assay_target="Protein-tyrosine kinase 6 (Homo sapiens)" units_text=% result_number=3.09
compound=COc1cc2ncn(-c3cc(O[C@@H](C)c4ccccc4Cl)c(C(N)=O)s3)c2cc1OC assay_target="Protein-tyrosine kinase 6 (Homo sapiens)" units_text=% result_number=-0.13
compound=NC(=O)c1ccc(-c2nc(-c3ccccn3)c(-c3ccc4c(c3)OCO4)[nH]2)cc1 assay_target="Protein-tyrosine kinase 6 (Homo sapiens)" units_text=% result_number=1.72
compound=NS(=O)(=O)c1ccc(N/N=C2\C(=O)Nc3ccc(C(=O)NCCc4c[nH]cn4)cc32)cc1 assay_target="Protein-tyrosine kinase 6 (Homo sapiens)" units_text=% result_number=7.16
compound=CCn1c(-c2nonc2N)nc2ccncc21 assay_target="Protein-tyrosine kinase 6 (Homo sapiens)" units_text=% result_number=-0.74
compound=CS(=O)(=O)CCN(CC#N)Cc1ccc(-c2ccc3ncnc(Nc4ccc(OCc5cccc(F)c5)c(Cl)c4)c3c2)o1 assay_target="Protein-tyrosine kinase 6 (Homo sapiens)" units_text=% result_number=2.35
compound=Cc1nnc(-c2ccc(C)c(-c3ccc(C(=O)Nc4cccc(C#N)c4)cc3)c2)o1 assay_target="Protein-tyrosine kinase 6 (Homo sapiens)" units_text=% result_number=2.27
compound=Nc1ncnc2occ(-c3ccc(NC(=O)Nc4cc(C(F)(F)F)cc(C(F)(F)F)c4)cc3)c12 assay_target="Protein-tyrosine kinase 6 (Homo sapiens)" units_text=% result_number=1.52
compound=COc1ccc(-c2nn3ncccc3c2-c2ccnc(Nc3ccc(Cl)c(C(F)(F)F)c3)n2)cc1 assay_target="Protein-tyrosine kinase 6 (Homo sapiens)" units_text=% result_number=3.82
compound=COc1ccc(-c2coc3ncnc(N)c23)cc1 assay_target="Protein-tyrosine kinase 6 (Homo sapiens)" units_text=% result_number=3.81
compound=O=C(Nc1n[nH]c2nc(-c3ccco3)c(Br)cc12)C1CC1 assay_target="Protein-tyrosine kinase 6 (Homo sapiens)" units_text=% result_number=6.01
compound=COc1cc2ncn(-c3cc(OCc4ccccc4Cl)c(C(N)=O)s3)c2cc1OC assay_target="Protein-tyrosine kinase 6 (Homo sapiens)" units_text=% result_number=0.65
compound=Cc1nn(C)c2cc(N(C)c3ccnc(Nc4cccc(S(N)(=O)=O)c4)n3)ccc12 assay_target="Protein-tyrosine kinase 6 (Homo sapiens)" units_text=% result_number=10.8
compound=COc1cc2ncn(-c3cc(O[C@H](C)c4ccccc4Cl)c(C(N)=O)s3)c2cc1OC assay_target="Protein-tyrosine kinase 6 (Homo sapiens)" units_text=% result_number=-0.56
compound=COc1cc(C)c(NC(=O)CN(C)C)cc1Nc1nc(Nc2cccc(F)c2C(N)=O)c2cc[nH]c2n1 assay_target="Protein-tyrosine kinase 6 (Homo sapiens)" units_text=% result_number=3.06
compound=CCn1c(-c2nonc2N)nc2c(C#CC(C)(C)O)nc(OC[C@@H](N)c3ccccc3)cc21 assay_target="Protein-tyrosine kinase 6 (Homo sapiens)" units_text=% result_number=0.79
